- Test system: NCI-H460
- METHOD DESCRIPTION: NCI tumour cell line growth inhibition, 48 h
Active and inactive are the calls of the source. Cut-off read from the data, not from the text of the source: active = GI50 up to about 1.1 µM and inactive = higher.
Your reply should match one of these outcome classes. Yes for active, No for inactive

Here are 5 molecules together with their reported answers.
MOLECULE: Clc1ccc(/C=C/c2nc(-c3ccccc3)cn3c2nc2ccccc23)cc1Cl
MEASURED TARGET: NCI-H460
DISCRETE LABEL: No

MOLECULE: CC(=O)OCC1OC(n2c(=O)n(-c3ccccc3)c(=O)c3ccccc32)C(OC(C)=O)C(OC(C)=O)C1OC(C)=O (stereo not given)
MEASURED TARGET: NCI-H460
DISCRETE LABEL: No

MOLECULE: Oc1ccccc1-c1nnc(S)n1/N=C/c1ccc(-c2ccc(Br)cc2)o1
MEASURED TARGET: NCI-H460
DISCRETE LABEL: No

MOLECULE: CCOC(=O)N(NC(=O)NC(C)C)c1ccccc1
MEASURED TARGET: NCI-H460
DISCRETE LABEL: No

MOLECULE: CCOC(=O)/C=C/c1ccccn1
MEASURED TARGET: NCI-H460
DISCRETE LABEL: No

GET /call?item= O=[N+]([O-])C(C(Cl)=C(Cl)Cl)=C(N(Cc1ccccc1)Cc1ccccc1)N(Cc1ccccc1)Cc1ccccc1 returns the recorded outcome of this test.
No

GET /call?item= CSc1nc(Nc2cccc(C(F)(F)F)c2)c2c(N)nn(C)c2n1 returns the recorded outcome of this test.
No

GET /call?item= O=C(CCc1ccc(O)cc1)NCCc1cccc(O)c1 returns the recorded outcome of this test.
No

GET /call?item= O=C1N=C2SC(=S)N=C(S)N2NC12c1ccccc1-c1ccccc12 returns the recorded outcome of this test.
Yes

GET /call?item= Oc1nc(S)nc2c1C(c1ccc(Cl)cc1)c1c(O)nc(S)nc1O2 returns the recorded outcome of this test.
No

GET /call?item= O=C(O)C(SC(=S)c1ccc(C(=S)SC(C(=O)O)c2ccccc2)cc1)c1ccccc1 (stereo not given) returns the recorded outcome of this test.
No

---

- Test system: UACC-257
- METHOD DESCRIPTION: NCI tumour cell line growth inhibition, 48 h
The source made the active and inactive calls. Rule as the data show it: active = GI50 up to about 1.1 µM and inactive = higher.
Your reply should match one of these outcome classes. 1 (yes) = active, 0 (no) = inactive

Here are 3 molecules together with their reported answers.
MOLECULE: CCOP(=O)(OCC)C(C)(C)OC(=O)NC#N
MEASURED TARGET: UACC-257
DISCRETE LABEL: 0 (no)

MOLECULE: O=C1O[C@@H](c2ccccc2)C[C@@H]1CN1CCOCC1
MEASURED TARGET: UACC-257
DISCRETE LABEL: 0 (no)

MOLECULE: O=C(NCCCCCCCCCCCCNC(=O)c1cnc2ccccc2n1)c1cnc2ccccc2n1
MEASURED TARGET: UACC-257
DISCRETE LABEL: 0 (no)

GET /call?item= CCCN(CCCCC(NC(C)=O)C(=O)NCc1ccccc1)C(=O)NCCCl (configuration not stated) returns the recorded outcome of this test.
0 (no)

GET /call?item= C=C(C)[C@H]1C2=CC(C)=C(O2)[C@@H](O[C@@H]2c3oc(cc3C)[C@H](C(=C)C)[C@H]3C=C(CC[C@H]2C(=C)C)C(=O)O3)[C@H](C(=C)C)CCC2=C[C@H]1OC2=O returns the recorded outcome of this test.
0 (no)

GET /call?item= O=S(=O)(/C=C/CS(=O)(=O)c1ccccc1)c1ccccc1 returns the recorded outcome of this test.
0 (no)

GET /call?item= Clc1cccc(Cl)c1C(Nc1nncs1)Nc1nncs1 returns the recorded outcome of this test.
0 (no)

GET /call?item= CN(N=O)C(=O)ON1C(=O)CCC1=O returns the recorded outcome of this test.
0 (no)

GET /call?item= Cc1ccc2c(c1C)C(=O)/C(=C/c1cccc(C)c1C(=O)O)C2 returns the recorded outcome of this test.
0 (no)

GET /call?item= CCCC(=O)CC(C)C(=O)C(=O)NC12CC3CC(CC(C3)C1)C2 (configuration not stated) returns the recorded outcome of this test.
0 (no)
